Source: the RNAGym collection of RNA variant scans (doi:10.7554/elife.80360)

B1: CPEB3 Ribozyme (parent)
chain: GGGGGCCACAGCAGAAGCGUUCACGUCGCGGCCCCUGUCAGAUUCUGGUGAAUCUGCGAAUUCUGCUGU

Variants of: B1
ASSAY EXPLANATION: self-cleavage, relative activity (ratio to wild type); higher = more cleavage; co-transcriptional
Criterion: self-cleavage meeting or surpassing 0.5. Met: true (1). Not met: false (0).

Please review the following examples before continuing.
- VARIANT: "U43C C54G"
  ASSIGNED CATEGORY: "true (1)"
- VARIANT: "U43G"
  ASSIGNED CATEGORY: "true (1)"
- VARIANT: "G48A A59G"
  ASSIGNED CATEGORY: "true (1)"
- VARIANT: "C18G C45A"
  ASSIGNED CATEGORY: "false (0)"
- VARIANT: "C34A U55C"
  ASSIGNED CATEGORY: "false (0)"

Given the entry A23C C27A , answer whether its self-cleavage meets or surpasses 0.5. false (0)

Given the entry G4A C18U , answer whether its self-cleavage meets or surpasses 0.5. false (0)

Given the entry U44C U46A , answer whether its self-cleavage meets or surpasses 0.5. true (1)

Given the entry A15G A23U , answer whether its self-cleavage meets or surpasses 0.5. true (1)
